Items are presented alongside their recorded Ratio.
TEST_TARGET: Deoxycytidine kinase (Rattus norvegicus) (UniProt P48769)
Sequence (P48769 whole entry): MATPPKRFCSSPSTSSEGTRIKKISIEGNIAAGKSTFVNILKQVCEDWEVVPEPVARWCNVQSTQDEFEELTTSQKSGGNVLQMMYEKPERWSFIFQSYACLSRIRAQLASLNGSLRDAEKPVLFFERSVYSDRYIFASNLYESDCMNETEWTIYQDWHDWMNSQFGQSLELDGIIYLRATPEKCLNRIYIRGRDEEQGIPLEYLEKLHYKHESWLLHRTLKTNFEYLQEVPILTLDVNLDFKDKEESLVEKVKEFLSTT
ASSAY_OVERVIEW: Irreversible inhibition of Walker 256 rat tumor deoxycytidine kinase assessed as ratio of V0/V1 by [3H]deoxycytidine binding assay

CHEMICAL_STRING: Nc1ccn(CCCOc2ccccc2)c(=O)n1
Ratio: 2
//
CHEMICAL_STRING: Nc1ccnc(SCCCOc2ccccc2)n1
Ratio: 1.5
//
CHEMICAL_STRING: Nc1ccnc(Sc2ccc3ccccc3c2)n1
Ratio: 2
//
CHEMICAL_STRING: CCCCCSc1nccc(N)n1
Ratio: 2
//
CHEMICAL_STRING: CCCn1ccc(N)nc1=O
Ratio: 1.4
//
CHEMICAL_STRING: CCCCCCCCOc1nccc(N)n1
Ratio: 1.5
//
CHEMICAL_STRING: Nc1ccn(CCOc2ccccc2)c(=O)n1
Ratio: 1.8
//
CHEMICAL_STRING: Nc1ccn(-c2cccc3ccccc23)c(=O)n1
Ratio: 1.4

* * *

TEST_TARGET: Deoxycytidine kinase (Rattus norvegicus) (UniProt P48769)
ASSAY_OVERVIEW: Irreversible inhibition of Walker 256 rat tumor deoxycytidine kinase assessed as ratio of V0/V1 by [3H]deoxycytidine binding assay
Field: label. Allowed values: Criterion met (Ratio < 2) or Criterion not met (Ratio >= 2).

CHEMICAL_STRING: Nc1cc[nH]c(=O)n1
CATEGORY: Criterion met
--
CHEMICAL_STRING: CCCOc1nccc(N)n1
CATEGORY: Criterion met
--
CHEMICAL_STRING: COCCOc1nccc(N)n1
CATEGORY: Criterion met
--
CHEMICAL_STRING: CCCCCOc1nccc(N)n1
CATEGORY: Criterion not met
--
CHEMICAL_STRING: Nc1ccnc(OCc2ccccc2)n1
CATEGORY: Criterion not met
--
CHEMICAL_STRING: Nc1ccnc(SCCCCc2ccccc2)n1
CATEGORY: Criterion met
--
CHEMICAL_STRING: Nc1ccn(Cc2ccccc2)c(=O)n1
CATEGORY: Criterion met
--
CHEMICAL_STRING: Nc1ccnc(SCc2ccccc2)n1
CATEGORY: Criterion not met

* * *

TEST_TARGET: Deoxycytidine kinase (Rattus norvegicus) (UniProt P48769)
ASSAY_OVERVIEW: Irreversible inhibition of Walker 256 rat tumor deoxycytidine kinase by [3H]deoxycytidine binding assay
Below, each entry is listed with its recorded IC.
ASSAY_ENDPOINT: IC (mM)

CHEMICAL_STRING: CCCCCOc1nccc(N)n1
TEST_TARGET: Deoxycytidine kinase (Rattus norvegicus) (UniProt P48769)
ENDPOINT_VALUE: 10
--
CHEMICAL_STRING: Nc1ccnc(SCc2ccccc2)n1
TEST_TARGET: Deoxycytidine kinase (Rattus norvegicus) (UniProt P48769)
ENDPOINT_VALUE: 4
--
CHEMICAL_STRING: Nc1ccnc(Oc2ccc(Cl)cc2)n1
TEST_TARGET: Deoxycytidine kinase (Rattus norvegicus) (UniProt P48769)
ENDPOINT_VALUE: 5
--
CHEMICAL_STRING: Nc1ccnc(OCc2ccccc2)n1
TEST_TARGET: Deoxycytidine kinase (Rattus norvegicus) (UniProt P48769)
ENDPOINT_VALUE: 7.5
--
CHEMICAL_STRING: CCCOc1nccc(N)n1
TEST_TARGET: Deoxycytidine kinase (Rattus norvegicus) (UniProt P48769)
ENDPOINT_VALUE: 5
--
CHEMICAL_STRING: Nc1ccn(CCCOc2ccccc2)c(=O)n1
TEST_TARGET: Deoxycytidine kinase (Rattus norvegicus) (UniProt P48769)
ENDPOINT_VALUE: 2.5
--
CHEMICAL_STRING: CC(C)CCn1ccc(N)nc1=O
TEST_TARGET: Deoxycytidine kinase (Rattus norvegicus) (UniProt P48769)
ENDPOINT_VALUE: 5
--
CHEMICAL_STRING: CCCCCSc1nccc(N)n1
TEST_TARGET: Deoxycytidine kinase (Rattus norvegicus) (UniProt P48769)
ENDPOINT_VALUE: 2.6
--
CHEMICAL_STRING: Nc1ccn(CCOc2ccccc2)c(=O)n1
TEST_TARGET: Deoxycytidine kinase (Rattus norvegicus) (UniProt P48769)
ENDPOINT_VALUE: 5
--
CHEMICAL_STRING: CCCn1ccc(N)nc1=O
TEST_TARGET: Deoxycytidine kinase (Rattus norvegicus) (UniProt P48769)
ENDPOINT_VALUE: 5
--
CHEMICAL_STRING: COCCOc1nccc(N)n1
TEST_TARGET: Deoxycytidine kinase (Rattus norvegicus) (UniProt P48769)
ENDPOINT_VALUE: 5
--
CHEMICAL_STRING: Nc1cc[nH]c(=O)n1
TEST_TARGET: Deoxycytidine kinase (Rattus norvegicus) (UniProt P48769)
ENDPOINT_VALUE: 10
